Experiment: Pharmacokinetics in female BALB/c nude mice bearing A375 xenografts, 1 day dosing (PK and PD study): plasma, tumor and brain concentrations, AUC
Format: in vivo
Settings: mouse, plasma, po, 1.5 mg/kg, Compound 141; 1.5 mg/kg p.o. BID × 1 day; post 2nd dose; 0.5 h; read-out: Mean Concentration in Plasma ± SEM
From the text: The concentrations of Dabrafenib, Compound 26 and Compound 141 in the treatment of female BALB/c nude mice bearing A375 xenografts are shown in Table 62-Table 72 and FIG. 52-FIG. 73.

- molecule: "CCN(C)S(=O)(=O)Nc1ccc(F)c(Oc2ccc3ncn(C4CC5(CCN(C6CC7(C6)CN(c6cc8c(cc6F)c(N6CCC(=O)NC6=O)nn8C)C7)CC5)C4)c(=O)c3c2)c1C#N (stereo not shown)"
  unit_symbol: "ng/mL"
  concentration at 0.5 h: 830

All figures here come from patent US20260297060A1.
